Biological target: Arachidonate 5-lipoxygenase-activating protein (Homo sapiens, UniProt P20292)
Sequence (P20292 whole entry): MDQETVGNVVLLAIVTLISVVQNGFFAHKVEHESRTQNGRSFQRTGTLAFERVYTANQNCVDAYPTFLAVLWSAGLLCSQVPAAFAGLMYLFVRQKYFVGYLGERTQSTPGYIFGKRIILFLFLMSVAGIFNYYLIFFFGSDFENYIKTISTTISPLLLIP
pIC50: −log10 of the molar value.
metric: pIC50

(a) CCNC(=O)Cn1cc(-c2nc(C3(c4ccc(-c5cnc(N)nc5)nc4)CCC3)no2)cn1
(b) COC(=O)[C@@H]1CN(c2ccc(-c3nc(C4(c5ccc(-c6cnc(N)nc6)nc5)CCC4)no3)cn2)CCN1
Q. Which value of pIC50 is greater, the one for a or the one for b ? Write the label of whichever entry you select.
A. b
(b: 8.43, a: 7.00)
